Origin of values: the supplement of paper PMC12042874

Test: amyloid nucleation score (Sup35N fusion, yeast selection) (log enrichment); library NNK3; higher = more nucleation; inactive = no reads after selection;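 note: zero at mode of non-aggregating sequences after 7 days selection at 30°C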
PARAMETER MEASURED: amyloid nucleation score

Some solved entries appear below for comparison.
LVLVQEKHRSRTAEFDHRLT = -0.186
YWMMLRT = inactive
LVMPYDMCCTRFQRAFSVCC = inactive
YRIGCRF = inactive
HPSVVLHGEATCTASRVLQV = inactive
VITADLRSMIWDVPKNVY = 0.92
LQIPKPFAMKYTMFQRKQND = inactive
MWSDLGV = -0.173

Okay, now this substance:
**Query** Given the substance CESPLERSSAKYCRWGSCWG , what is its reported amyloid nucleation score?
**Result** inactive
